Catalogue of Papp A→B at 90 min, 10 μM readings, one per entry.
assay: in vitro; conditions: human, Caco-2, pH 7.4

# example entries with known answers
Please look at this compound and report its Papp A→B at 90 min, 10 μM: Cn1c(CN(CCC(N)=O)[C@H]2CCCc3cccnc32)nc2ccccc21
5 to 10 ×10⁻⁶ cm/s

Please look at this compound and report its Papp A→B at 90 min, 10 μM: COc1cccc(CCN(Cc2ncccc2C)Cc2ncccc2C)n1
> 10 ×10⁻⁶ cm/s

Next:
Please look at this compound and report its Papp A→B at 90 min, 10 μM: Cc1cccnc1CN(CCc1c[nH]cn1)[C@H]1CCCc2cccnc21
< 5 ×10⁻⁶ cm/s

Please look at this compound and report its Papp A→B at 90 min, 10 μM: COc1cccnc1CCN(Cc1ncccc1C)Cc1ncccc1C
5 to 10 ×10⁻⁶ cm/s

Please look at this compound and report its Papp A→B at 90 min, 10 μM: NC(=O)CCN(Cc1nccc2ccccc12)[C@H]1CCCc2cccnc21
5 to 10 ×10⁻⁶ cm/s

Please look at this compound and report its Papp A→B at 90 min, 10 μM: COc1ccnc(CCN(Cc2ncccc2C)Cc2ncccc2C)c1
> 10 ×10⁻⁶ cm/s

Please look at this compound and report its Papp A→B at 90 min, 10 μM: Cc1cccnc1CN(CCc1c[nH]cn1)Cc1nc2cccc(F)c2n1C
< 5 ×10⁻⁶ cm/s

Please look at this compound and report its Papp A→B at 90 min, 10 μM: Clc1cccnc1CN(CCc1cnc[nH]1)Cc1ncccc1Cl
> 10 ×10⁻⁶ cm/s

Please look at this compound and report its Papp A→B at 90 min, 10 μM: Cn1c(CN(CCc2c[nH]cn2)[C@H]2CCCc3cccnc32)nc2cccc(F)c21
5 to 10 ×10⁻⁶ cm/s
